The measurements presented in this section are drawn from ChEMBL document CHEMBL2218924.

Target: Macrophage colony-stimulating factor 1 receptor (Homo sapiens) (UniProt P07333)
Sequence (P07333 whole entry): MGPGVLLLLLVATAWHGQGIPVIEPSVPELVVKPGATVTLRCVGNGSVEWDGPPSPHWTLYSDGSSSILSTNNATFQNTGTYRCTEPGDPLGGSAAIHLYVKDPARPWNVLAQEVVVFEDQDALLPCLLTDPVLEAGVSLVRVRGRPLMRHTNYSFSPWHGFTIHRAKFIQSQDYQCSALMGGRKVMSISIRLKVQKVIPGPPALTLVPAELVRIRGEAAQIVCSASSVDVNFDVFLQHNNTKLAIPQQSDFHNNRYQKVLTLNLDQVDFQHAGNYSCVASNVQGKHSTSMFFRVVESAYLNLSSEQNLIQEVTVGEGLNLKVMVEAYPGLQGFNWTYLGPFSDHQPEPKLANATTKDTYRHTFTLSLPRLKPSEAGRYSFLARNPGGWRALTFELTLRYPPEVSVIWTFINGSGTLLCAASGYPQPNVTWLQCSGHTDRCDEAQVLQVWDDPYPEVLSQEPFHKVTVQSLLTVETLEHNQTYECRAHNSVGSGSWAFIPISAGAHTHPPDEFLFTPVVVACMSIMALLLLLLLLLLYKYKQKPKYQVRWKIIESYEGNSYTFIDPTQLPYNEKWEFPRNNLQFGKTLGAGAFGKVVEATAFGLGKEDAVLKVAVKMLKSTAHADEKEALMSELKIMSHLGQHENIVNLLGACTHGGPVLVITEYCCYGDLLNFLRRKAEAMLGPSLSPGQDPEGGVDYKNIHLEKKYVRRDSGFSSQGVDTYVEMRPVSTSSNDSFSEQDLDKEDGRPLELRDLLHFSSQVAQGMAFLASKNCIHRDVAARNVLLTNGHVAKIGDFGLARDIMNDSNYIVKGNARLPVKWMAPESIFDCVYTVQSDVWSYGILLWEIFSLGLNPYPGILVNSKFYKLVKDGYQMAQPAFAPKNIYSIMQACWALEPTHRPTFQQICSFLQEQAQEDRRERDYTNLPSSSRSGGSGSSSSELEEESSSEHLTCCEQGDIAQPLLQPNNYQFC
Settings: at 10 µM
So basically: residual activity at 20% or higher? That is True. Lower than 20%? That is False.

// known answers, use as guide
[
  {
    "compound": "COc1cc2c(cc1OC)-c1n[nH]c(Nc3cccc(F)c3)c1C2",
    "category.label": "False"
  },
  {
    "compound": "O=C1Nc2ccc(Cl)cc2/C1=C/c1cc(Cl)c(O)c(Cl)c1",
    "category.label": "False"
  },
  {
    "compound": "COc1ccc(-c2cnc3c(-c4ccsc4)cnn3c2)cc1",
    "category.label": "False"
  },
  {
    "compound": "COc1cc2nccc(Oc3ccc(NC(=S)NC(=O)c4ccccc4C)cc3)c2cc1OC",
    "category.label": "False"
  },
  {
    "compound": "N#C/C(=C\\c1ccc(O)c(O)c1)C(=O)NCc1ccccc1",
    "category.label": "True"
  }
]

input: In plain terms: is recorded residual activity at least 20% for `Nc1n[nH]c2nc3ccccc3nc12` ?
output: True

input: In plain terms: is recorded residual activity at least 20% for `COc1cc2ncnc(Nc3cccc(Cl)c3)c2cc1OC` ?
output: True

input: In plain terms: is recorded residual activity at least 20% for `Nc1ncnc2c1c(-c1ccc(Oc3ccccc3)cc1)cn2C1CCCC1` ?
output: False

input: In plain terms: is recorded residual activity at least 20% for `O=C1NC(=O)C(c2cn(CCCn3ccnc3)c3ccccc23)=C1Nc1ccccc1` ?
output: True

input: In plain terms: is recorded residual activity at least 20% for `O=C1NC(=O)C(c2c[nH]c3ccccc23)=C1c1c[nH]c2ccccc12` ?
output: True

input: In plain terms: is recorded residual activity at least 20% for `O=C(Nc1ccc(Cl)cc1)c1ccccc1NCc1ccncc1` ?
output: False

input: In plain terms: is recorded residual activity at least 20% for `Fc1ccc(-c2nc3n(c2-c2ccncc2)CCS3)cc1` ?
output: True

input: In plain terms: is recorded residual activity at least 20% for `CN(C)S(=O)(=O)c1ccc2c(c1)/C(=C/c1cc3c([nH]1)CCCC3)C(=O)N2` ?
output: False

input: In plain terms: is recorded residual activity at least 20% for `O=C1C(Cl)=C(N2C(=O)CCC2=O)C(=O)c2ccccc21` ?
output: True

input: In plain terms: is recorded residual activity at least 20% for `COc1ccc2c(c1)c(C1=C(c3c[nH]c4ccccc34)C(=O)NC1=O)cn2CCCN(C)C` ?
output: True

---

This section presents compounds with their documented residual activity values.
Molecular target: RAC-gamma serine/threonine-protein kinase (Homo sapiens)
Conditions: at 1 µM
Kindly answer with a numeric value in %, unit omitted.

[
  {
    "molecular.string": "O=S(=O)(NCCNC/C=C/c1ccc(Br)cc1)c1cccc2cnccc12",
    "tested.on": "RAC-gamma serine/threonine-protein kinase (Homo sapiens)",
    "reading.unit": "%",
    "residual activity": 31
  },
  {
    "molecular.string": "NC(=O)c1ccc(-c2nc(-c3ccc4c(c3)OCCO4)c(-c3ccccn3)[nH]2)cc1",
    "tested.on": "RAC-gamma serine/threonine-protein kinase (Homo sapiens)",
    "reading.unit": "%",
    "residual activity": 98
  },
  {
    "molecular.string": "O=C1C(Cl)=C(N2C(=O)CCC2=O)C(=O)c2ccccc21",
    "tested.on": "RAC-gamma serine/threonine-protein kinase (Homo sapiens)",
    "reading.unit": "%",
    "residual activity": 89
  },
  {
    "molecular.string": "O=C1Nc2ccc(Cl)cc2/C1=C/c1cc(Cl)c(O)c(Cl)c1",
    "tested.on": "RAC-gamma serine/threonine-protein kinase (Homo sapiens)",
    "reading.unit": "%",
    "residual activity": 96
  }
]

input: Using known records, supply residual activity for `Nc1n[nH]c2nc3ccccc3nc12`
output: 87

input: Using known records, supply residual activity for `O=C1NC(=O)C(c2c[nH]c3ccccc23)=C1c1c[nH]c2ccccc12`
output: 100
